Entries annotated with measured growth inhibition
method_notes: NCI Yeast Anticancer Drug Screen. Data for the mec2-1 strain (AID 157)
condition_details: S. cerevisiae mec2-1 strain, at 5.0 µM (retest, dose inferred, filed as 0.5), active compounds read high
About 79,000 compounds went through this panel and 15% of them were active in at least one assay; those are over-represented in the sample as a whole. The source made the active and inactive calls. No stated cut-off is given here; in the data, active means growth inhibition above about 70%; inactive means the rest.

O=[N+]([O-])c1cccc2nc3ccccc3c(NCCC[N+]3([O-])CCOCC3)c12: 9% (inactive)

Qu. What value of growth inhibition has been reported for the following compound? `Cc1cc(NC(=S)SCc2ccc(Cl)cc2)ccc1Cl`
Ans. 0% (inactive)

Qu. And `CCCCCC(=O)C(C)(c1nc2n(c1O)/C(=N/C(=O)Nc1ccc(Cl)cc1)N=N2)c1nc2n(c1O)/C(=N/C(=O)Nc1ccc(Cl)cc1)N=N2` ?
Ans. 20% (inactive)

Qu. And `Clc1ccc(C(c2ccc(Cl)cc2)N2CCNCC2)cc1` ?
Ans. 70% (active)

Qu. And CCOc1ccccc1N1C(=O)CC(Sc2ccccc2N)C1=O (stereo not drawn) ?
Ans. 57% (inactive)

Qu. And `Cc1ccc2oc(-c3cccc(N)c3)nc2c1` ?
Ans. -10% (inactive)

Qu. And `Cc1nc2ccccc2c(=O)n1NC(=O)c1ccc(CS)cc1` ?
Ans. -27% (inactive)

Qu. And [N-]=[N+]=NC1CC(n2ccc(=O)[nH]c2=O)OC1COC(c1ccccc1)(c1ccccc1)c1ccccc1 (stereo not drawn) ?
Ans. 18% (inactive)
